ASSAY EXPLANATION: Agonist activity at STING R232H mutant (unknown origin) expressed in digitonin -permeabilized HEK293T cells preincubated for 30 mins followed by washout and measured after 5 hrs by Bright-glo luciferase assay
Assay type: cell-based
STATED CONDITIONS: Homo sapiens, HEK-293T
METRIC: EC50 (µM)
Give the value in µM but do not write µM after it.

Asked: I would be grateful if you could share the reported EC50 for Nc1ncnc2c1ncn2[C@@H]1O[C@@H]2/C=C\P(=O)(O)O[C@H]3[C@@H](F)[C@H](n4cnc5c(N)ncnc54)O[C@@H]3COP(=O)(O)O[C@H]2[C@H]1F .
Given back: 12

Asked: Dear colleague, I am looking for the recorded EC50 of the following compound: Nc1nc2c(ncn2[C@H]2C[C@@H]3OP(=O)(O)/C=C/[C@H]4O[C@@H](n5cnc6c(N)ncnc65)[C@H](F)[C@@H]4OP(=O)(O)OC[C@H]3O2)c(=O)[nH]1
Given back: 9.5

====

TESTED SYSTEM: UniProtKB Q86WV6
Sequence (Q86WV6 whole entry): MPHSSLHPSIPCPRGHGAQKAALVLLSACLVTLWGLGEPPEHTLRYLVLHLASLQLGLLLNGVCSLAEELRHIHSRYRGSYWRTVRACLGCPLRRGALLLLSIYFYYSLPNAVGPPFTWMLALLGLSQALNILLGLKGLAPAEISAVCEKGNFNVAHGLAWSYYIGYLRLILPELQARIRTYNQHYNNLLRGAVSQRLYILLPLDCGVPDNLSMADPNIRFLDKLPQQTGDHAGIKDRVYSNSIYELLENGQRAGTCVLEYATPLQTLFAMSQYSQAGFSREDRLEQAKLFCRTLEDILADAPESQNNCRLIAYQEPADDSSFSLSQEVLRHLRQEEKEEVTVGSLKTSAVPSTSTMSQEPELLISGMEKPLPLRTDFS
ASSAY EXPLANATION: Agonist activity at wild type STING (unknown origin) expressed in HEK293T cells measured after 7 hrs by Bright-glo luciferase assay
Assay type: cell-based
METRIC: pEC50
Scale note: pEC50 = -log10(concentration in M).

Asked: Bench note: what pEC50 did CC(C)(C)C(=O)OCOP1(=O)/C=C/[C@H]2O[C@@H](n3cnc4c(N)ncnc43)[C@H](F)[C@@H]2OP(=O)(OCOC(=O)C(C)(C)C)OC[C@H]2O[C@@H](n3cnc4c(N)ncnc43)[C@H](F)[C@@H]2O1 (stereo in doubt; 11B) show?
Given back: 7.66

Asked: Requested field: pEC50. Item: CC(C)(C)C(=O)OCOP1(=O)/C=C/[C@H]2O[C@@H](n3cnc4c(N)ncnc43)C[C@@H]2OP(=O)(OCOC(=O)C(C)(C)C)OC[C@H]2O[C@@H](n3cnc4c(N)ncnc43)[C@H](F)[C@@H]2O1 (stereo in doubt; 24C)
Given back: 6.59

Asked: Quick check: pEC50 of CC(C)(C)C(=O)OCOP1(=O)/C=C/[C@H]2O[C@@H](n3cnc4c(N)ncnc43)[C@H](F)[C@@H]2OP(=O)(OCOC(=O)C(C)(C)C)OC[C@H]2O[C@@H](n3cnc4c(N)ncnc43)[C@H](F)[C@@H]2O1 (stereo in doubt; 11C) ?
Given back: 7.92

Asked: Value lookup for pEC50; key = CC1(C(=O)OCOP2(=O)/C=C/[C@H]3O[C@@H](n4cnc5c(N)ncnc54)[C@H](F)[C@@H]3OP(=O)(OCOC(=O)C3(C)CCCCC3)OC[C@H]3O[C@@H](n4cnc5c(N)ncnc54)[C@H](F)[C@@H]3O2)CCCCC1 (stereo in doubt; 14C)
Given back: 7.89

Asked: Fill in the blank: the reported pEC50 of CC1(C(=O)OCOP2(=O)/C=C/[C@H]3O[C@@H](n4cnc5c(N)ncnc54)[C@H](F)[C@@H]3OP(=O)(OCOC(=O)C3(C)CCCCC3)OC[C@H]3O[C@@H](n4cnc5c(N)ncnc54)[C@H](F)[C@@H]3O2)CCCCC1 (stereo in doubt; 14B) is ____.
Given back: 7.10

Asked: Return reported pEC50; argument: CCC(C)(C)C(=O)OCOP1(=O)/C=C/[C@H]2O[C@@H](n3cnc4c(N)ncnc43)[C@H](F)[C@@H]2OP(=O)(OCOC(=O)C(C)(C)CC)OC[C@H]2O[C@@H](n3cnc4c(N)ncnc43)[C@H](F)[C@@H]2O1 (stereo in doubt; 13A)
Given back: 6.82

Asked: Endpoint output: pEC50 of CCC(C)(C)C(=O)OCOP1(=O)/C=C/[C@H]2O[C@@H](n3cnc4c(N)ncnc43)[C@H](F)[C@@H]2OP(=O)(OCOC(=O)C(C)(C)CC)OC[C@H]2O[C@@H](n3cnc4c(N)ncnc43)[C@H](F)[C@@H]2O1 (stereo in doubt; 13C) . Value?
Given back: 8.15

Asked: Would you kindly share the measured pEC50 for CC(C)(C)C(=O)OCOP1(=O)/C=C/[C@H]2O[C@@H](n3cnc4c(N)ncnc43)C[C@@H]2OP(=O)(OCOC(=O)C(C)(C)C)OC[C@H]2O[C@@H](n3cnc4c(N)ncnc43)[C@H](F)[C@@H]2O1 (stereo in doubt; 24B) ?
Given back: 6.17

Asked: So what's the measured pEC50 for this one? CC1(C(=O)OCOP2(=O)/C=C/[C@H]3O[C@@H](n4cnc5c(N)ncnc54)[C@H](F)[C@@H]3OP(=O)(OCOC(=O)C3(C)CCCCC3)OC[C@H]3O[C@@H](n4cnc5c(N)ncnc54)[C@H](F)[C@@H]3O2)CCCCC1 (stereo in doubt; 14A)
Given back: 6.60

Asked: Bench note: what pEC50 did CC(C)(C)C(=O)OCOP1(=O)/C=C/[C@H]2O[C@@H](n3cnc4c(N)ncnc43)[C@H](F)[C@@H]2OP(=O)(OCOC(=O)C(C)(C)C)OC[C@H]2O[C@@H](n3cnc4c(N)ncnc43)[C@H](F)[C@@H]2O1 (stereo in doubt; 11A) show?
Given back: 7.22

Asked: Which pEC50 reading was recorded for the compound CCC(C)(C)C(=O)OCOP1(=O)/C=C/[C@H]2O[C@@H](n3cnc4c(N)ncnc43)[C@H](F)[C@@H]2OP(=O)(OCOC(=O)C(C)(C)CC)OC[C@H]2O[C@@H](n3cnc4c(N)ncnc43)[C@H](F)[C@@H]2O1 (stereo in doubt; 13B) ?
Given back: 7.85

Asked: Query: pEC50; subject: CC(C)(C)C(=O)OCOP1(=O)/C=C/[C@H]2O[C@@H](n3cnc4c(N)ncnc43)C[C@@H]2OP(=O)(OCOC(=O)C(C)(C)C)OC[C@H]2O[C@@H](n3cnc4c(N)ncnc43)[C@H](F)[C@@H]2O1 (stereo in doubt; 24A)
Given back: 4.92

Asked: Any idea what pEC50 was measured for CCCCCCCC(=O)OCOP1(=O)/C=C/[C@H]2O[C@@H](n3cnc4c(N)ncnc43)[C@H](F)[C@@H]2OP(=O)(OCOC(=O)CCCCCCC)OC[C@H]2O[C@@H](n3cnc4c(N)ncnc43)[C@H](F)[C@@H]2O1 (stereo in doubt; 15C) ?
Given back: 8.52

Asked: # get_value(readout='pEC50', item= Nc1ncnc2c1ncn2[C@@H]1O[C@@H]2/C=C\P(=O)(O)O[C@H]3[C@@H](F)[C@H](n4cnc5c(N)ncnc54)O[C@@H]3COP(=O)(O)O[C@H]2[C@H]1F )
Given back: 4.67

Asked: # lookup: pEC50 of CC(C)OC(=O)OCOP1(=O)/C=C/[C@H]2O[C@@H](n3cnc4c(N)ncnc43)[C@H](F)[C@@H]2OP(=O)(OCOC(=O)OC(C)C)OC[C@H]2O[C@@H](n3cnc4c(N)ncnc43)[C@H](F)[C@@H]2O1 (stereo in doubt; 12B)
Given back: 5.90

Asked: Item under review: CCCCCCCC(=O)OCOP1(=O)/C=C/[C@H]2O[C@@H](n3cnc4c(N)ncnc43)[C@H](F)[C@@H]2OP(=O)(OCOC(=O)CCCCCCC)OC[C@H]2O[C@@H](n3cnc4c(N)ncnc43)[C@H](F)[C@@H]2O1 (stereo in doubt; 15A) . Reported pEC50?
Given back: 7.70

====

Provide the reported EC50 of each item.
ASSAY EXPLANATION: Agonist activity at STING R232H mutant (unknown origin) expressed in digitonin -permeabilized HEK293T cells preincubated for 30 mins followed by washout and measured after 5 hrs by Bright-glo luciferase assay
Format: cell-based
STATED CONDITIONS: Homo sapiens, HEK-293T

Asked: So what does the record say about EC50 for Nc1ncnc2c1ncn2[C@@H]1O[C@@H]2/C=C/P(=O)(O)O[C@H]3C[C@H](n4cnc5c(N)ncnc54)O[C@@H]3COP(=O)(O)O[C@H]2[C@H]1F ?
Given back: > 45 µM

Asked: Entry under review: Nc1nc2c(ncn2[C@@H]2O[C@@H]3/C=C/P(=O)(O)O[C@H]4[C@@H](F)[C@H](n5cnc6c(N)ncnc65)O[C@@H]4COP(=O)(O)O[C@H]3[C@H]2F)c(=O)[nH]1 . Reported EC50?
Given back: 0.32 µM

Asked: Requested field: EC50. Item: Nc1nc2c(ncn2[C@@H]2O[C@@H]3/C=C/P(=O)(O)O[C@H]4[C@@H](F)[C@H](n5cnc6c(=O)[nH]c(N)nc65)O[C@@H]4COP(=O)(O)O[C@H]3[C@H]2F)c(=O)[nH]1
Given back: 3.69 µM

Asked: Please give the measured EC50 for this molecule: Nc1ncnc2c1ncn2[C@@H]1O[C@@H]2COP(=O)(O)O[C@H]3C[C@H](n4cnc5c(N)ncnc54)O[C@@H]3/C=C/P(=O)(O)O[C@H]2[C@H]1F
Given back: > 45 µM

Asked: Can you share its EC50? I mean this molecule: Nc1nc2c(ncn2[C@H]2C[C@@H]3OP(=O)(O)OC[C@H]4O[C@@H](n5cnc6c(N)ncnc65)C[C@@H]4OP(=O)(O)/C=C/[C@H]3O2)c(=O)[nH]1
Given back: > 45 µM

Asked: Value lookup for EC50; key = Nc1nc2c(ncn2[C@@H]2O[C@@H]3COP(=O)(O)O[C@H]4C[C@H](n5cnc6c(N)ncnc65)O[C@@H]4/C=C/P(=O)(O)O[C@H]3[C@H]2F)c(=O)[nH]1
Given back: 25.5 µM
